Assay System: Peroxisome proliferator-activated receptor gamma (Homo sapiens) (UniProt P37231)
Sequence (P37231 whole entry, looked up): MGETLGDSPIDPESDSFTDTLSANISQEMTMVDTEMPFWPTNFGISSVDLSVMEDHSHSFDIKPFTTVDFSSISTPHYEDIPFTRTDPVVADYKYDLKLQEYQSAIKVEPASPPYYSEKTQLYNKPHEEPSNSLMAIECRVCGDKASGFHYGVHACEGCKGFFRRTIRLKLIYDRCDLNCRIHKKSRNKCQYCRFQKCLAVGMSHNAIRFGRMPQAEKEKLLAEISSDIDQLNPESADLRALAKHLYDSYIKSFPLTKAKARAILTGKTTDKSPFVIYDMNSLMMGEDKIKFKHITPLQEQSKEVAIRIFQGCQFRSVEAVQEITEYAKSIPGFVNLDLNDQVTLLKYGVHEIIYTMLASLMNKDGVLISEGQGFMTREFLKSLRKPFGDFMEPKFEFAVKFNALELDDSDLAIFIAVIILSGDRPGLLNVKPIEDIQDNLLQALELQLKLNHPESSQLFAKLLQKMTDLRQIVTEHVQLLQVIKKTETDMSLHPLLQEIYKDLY
Method Description: partial agonism at human PPARgamma receptor – cell-based, luciferase reporter, luminescence, primary screen (AID 504452);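 further: Cos-1 cells carrying PPARgamma and a response element luciferase reporter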
Recorded Conditions: cell-based PPARg luciferase reporter, at 5 µM, stronger effect = higher value
Parameter: activation (% of partial agonist control) (%)
Enter your answer as a number in %; do not include the unit.

Given item O=C(CC(C(=O)N1CCc2ccccc21)n1ccnc1)NCc1ccccc1 (centres undefined) , the value recorded as its activation (% of partial agonist control) is 31.2

Given item CC1Cc2cc(/C(O)=C3/C(=O)C(=O)N(CCN4CCOCC4)C3c3ccc(N(C)C)cc3)ccc2O1 (centres undefined) , the value recorded as its activation (% of partial agonist control) is 64.3

----------
Assay System: Peroxisome proliferator-activated receptor gamma (Homo sapiens)
Method Description: partial agonism at human PPARgamma receptor – cell-based, luciferase reporter, luminescence, primary screen (AID 504452);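 further: Cos-1 cells carrying PPARgamma and a response element luciferase reporter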
Recorded Conditions: cell-based PPARg luciferase reporter, at 5 µM, stronger effect = higher value; measured here: relative to full agonist control
Parameter: activation (% of full agonist control) (%)
Enter your answer as a number in %; do not include the unit.

Guide cases for activation (% of full agonist control), answers given:
Molecule: C=CCSc1nnc(N2C(=O)C(O)=C(C(=O)c3ccco3)C2c2ccc(F)cc2)s1 (centres undefined)
Reading: 30.5
//
Molecule: O=C(CC1C(=O)Nc2ccccc2N1CC(=O)N1CCCC1)Nc1ccc(Br)cc1 (centres undefined)
Reading: 37
//
Molecule: COc1ccc2c(c1)c(=O)c(C(=O)c1ccc(C)cc1)cn2CC(=O)Nc1ccc(F)cc1
Reading: 45
//
Molecule: Cc1ccccc1NC(=O)CC1C(=O)Nc2ccccc2N1CC(=O)N(C)C1CCS(=O)(=O)C1 (centres undefined)
Reading: 47
//
Molecule: CCOc1ccc2nc(N3C(=O)C(O)=C(C(=O)c4ccco4)C3c3ccco3)sc2c1 (centres undefined)
Reading: 38.5

The record that follows has no activation (% of full agonist control) shown yet.
Given item COc1ccc(N2C(=O)C(CN3CCN(C)CC3)C2c2ccccc2)cc1 (centres undefined) , the value recorded as its activation (% of full agonist control) is 31.9

----------
activation (% of full agonist control) for assorted molecules
Assay System: Peroxisome proliferator-activated receptor gamma (Homo sapiens) (UniProt P37231)
Method Description: partial agonism at human PPARgamma receptor – cell-based, luciferase reporter, luminescence, primary screen (AID 504452);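 further: Cos-1 cells carrying PPARgamma and a response element luciferase reporter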
Recorded Conditions: cell-based PPARg luciferase reporter, at 5 µM, stronger effect = higher value; measured here: relative to full agonist control
Enter your answer as a number in %; do not include the unit.

Smiles Record: O=[N+]([O-])c1cc(S(=O)(=O)Nc2cccc(C(F)(F)F)c2)ccc1-n1nnc2ccccc21
activation (% of full agonist control) [%]: 34.2

Given item `COc1ccc(-n2c3c(cc(C(=O)NNc4ccccc4C)c2=O)C(=O)CC(C)(C)C3)cc1` , the value recorded as its activation (% of full agonist control) is 32.7

Given item `Cn1nc(-c2ccccc2)c(CO)c1Oc1cccc(C(F)(F)F)c1` , the value recorded as its activation (% of full agonist control) is 30.3

----------
Assay System: Peroxisome proliferator-activated receptor gamma (Homo sapiens) (UniProt P37231)
Method Description: partial agonism at human PPARgamma receptor – cell-based, luciferase reporter, luminescence, primary screen (AID 504452);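 further: Cos-1 cells carrying PPARgamma and a response element luciferase reporter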
Recorded Conditions: cell-based PPARg luciferase reporter, at 5 µM, stronger effect = higher value
Active and inactive are the calls of the source. Cut-off read from the data, not from the text of the source: active = activation above about 85%; inactive = the rest.
activation (% of partial agonist control) for assorted molecules

Guide cases for activation (% of partial agonist control), answers given:
Molecule: O=C1C(=O)N(Cc2ccccc2)C(c2cccc(O)c2)/C1=C(\O)c1ccc2c(c1)OCCO2 (stereo not drawn)
Reading: 56.7% (inactive)
//
Molecule: COc1cc(C2/C(=C(/O)c3ccc(F)cc3)C(=O)C(=O)N2CCCC(=O)O)ccc1O (stereo not drawn)
Reading: 82% (inactive)
//
Molecule: O=C(Nc1ccccc1Cl)C(=O)c1cn(CC(=O)N2CCOCC2)c2ccccc12
Reading: 112% (active)
//
Molecule: CN(C)c1ccc(C(CNS(=O)(=O)c2cccc([N+](=O)[O-])c2)N2CCOCC2)cc1 (stereo not drawn)
Reading: 70.6% (inactive)
//
Molecule: COc1ccc(O)c(C(=O)c2cc(C#N)c(=O)n(CC3CCCO3)c2)c1 (stereo not drawn)
Reading: 84.3% (inactive)

Given item CCN(C(=O)CSc1nnc(-c2ccc(F)cc2)c2ccccc12)C1CCS(=O)(=O)C1 (stereo not drawn) , the value recorded as its activation (% of partial agonist control) is 76.4% (inactive)

Given item `Cn1nc(-c2ccccc2)c(CO)c1Oc1cccc(C(F)(F)F)c1` , the value recorded as its activation (% of partial agonist control) is 67% (inactive)

----------
Assay System: Peroxisome proliferator-activated receptor gamma (Homo sapiens) (UniProt P37231)
Method Description: partial agonism at human PPARgamma receptor – cell-based, luciferase reporter, luminescence, primary screen (AID 504452);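 further: Cos-1 cells carrying PPARgamma and a response element luciferase reporter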
Recorded Conditions: cell-based PPARg luciferase reporter, at 5 µM, stronger effect = higher value; measured here: relative to full agonist control
Returns Condition met if the recorded activation (% of full agonist control) is greater than or equal to 30%, and Condition not met otherwise.

Known results for compounds:
Compound: CCn1cnc2c1c(=O)n(Cc1cccc([N+](=O)[O-])c1)c(=O)n2Cc1ccccc1
Label Class: Condition met

Compound: O=C(NCCc1c[nH]c2ccccc12)N[C@@H](Cc1ccccc1)C(=O)O
Label Class: Condition met

Compound: O=C(COc1cc(F)ccc1[N+](=O)[O-])N1N=C(c2cccs2)CC1c1ccco1 (centres undefined)
Label Class: Condition met

Compound: Cc1cccc(NC(=O)CN2C(=O)N/C(=C/c3ccc(-c4cccc(C(=O)O)c4C)o3)C2=O)c1
Label Class: Condition met

Compound: O=c1c2cn(Cc3ccc(F)cc3)c3ccccc3c-2nn1Cc1ccc(F)cc1
Label Class: Condition met

Compound: CN(C)c1ccc(C(CNS(=O)(=O)c2cccc([N+](=O)[O-])c2)N2CCOCC2)cc1 (centres undefined)
Label Class: Condition met

Compound: COc1ccccc1N1C(=O)C2C(C(=O)c3ccccc3)=NN(c3ccc(C)cc3)C2C1=O (centres undefined)
Label Class: Condition met

Compound: Cc1ccc2cc(CN(Cc3ccccc3)Cc3nnnn3C3CCCC3)c(=O)[nH]c2c1
Label Class: Condition met

Compound: O=C(c1nc2ccccn2c1CN1CCCC(O)C1)N1CCN(C2CCCCC2)CC1 (centres undefined)
Label Class: Condition met

Compound: COC(=O)c1cc(C(=O)N2CCN(c3cccc(Cl)c3)CC2)cc([N+](=O)[O-])c1
Label Class: Condition not met

In: Check the entry O=C(CN1CCOC1=O)N1CCCC(N2CCN(c3cccc(C(F)(F)F)c3)CC2)C1 (centres undefined) : does activation (% of full agonist control) equal or exceed 30%?
Out: Condition not met

In: Check the entry `COC(=O)C1=CN(Cc2ccc(F)cc2)C=C(C(=O)OC)C1c1ccc(O)c(OC)c1` : does activation (% of full agonist control) equal or exceed 30%?
Out: Condition not met

In: Check the entry CCN(C(=O)CSc1nnc(-c2ccc(F)cc2)c2ccccc12)C1CCS(=O)(=O)C1 (centres undefined) : does activation (% of full agonist control) equal or exceed 30%?
Out: Condition met

In: Check the entry Nc1ccccc1SC1CC(=O)N(c2ccc3c(c2)OCO3)C1=O (centres undefined) : does activation (% of full agonist control) equal or exceed 30%?
Out: Condition met

In: Check the entry `O=C(Cn1c(=O)c(=O)n(Cc2ccccc2)c2ccc(Cl)cc21)Nc1cccc(F)c1` : does activation (% of full agonist control) equal or exceed 30%?
Out: Condition not met

In: Check the entry CCOc1ccc(C2c3[nH]c4ccccc4c3CCN2Cc2cccn2-c2ncccn2)cc1 (centres undefined) : does activation (% of full agonist control) equal or exceed 30%?
Out: Condition met

In: Check the entry Cc1cc(C)c2nc(N3C(=O)C(O)=C(C(=O)c4ccco4)C3c3cccc(O)c3)sc2c1 (centres undefined) : does activation (% of full agonist control) equal or exceed 30%?
Out: Condition not met

----------
Assay System: Peroxisome proliferator-activated receptor gamma (Homo sapiens)
Method Description: partial agonism at human PPARgamma receptor – cell-based, luciferase reporter, luminescence, primary screen (AID 504452);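 further: Cos-1 cells carrying PPARgamma and a response element luciferase reporter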
Recorded Conditions: cell-based PPARg luciferase reporter, at 5 µM, stronger effect = higher value
activation (% of partial agonist control) for assorted compounds
Enter your answer as a number in %; do not include the unit.

Guide cases for activation (% of partial agonist control), answers given:
Compound: COc1ccc(C2C(C(=O)N3CCC(C(N)=O)CC3)CC(=O)N2c2ccc(OC)cc2)cc1 (centres undefined)
Unit Label: %
Reading: 56.5

Compound: Cc1ccc(C(=O)N2NC(c3ccccc3F)C3C(=O)N(c4cccc(C)c4)C(=O)C32)cc1 (centres undefined)
Unit Label: %
Reading: 73.8

Compound: O=C(c1cc2n(n1)C(C(F)(F)F)CC(c1ccco1)N2)N1CCc2ccccc2C1 (centres undefined)
Unit Label: %
Reading: 82.3

Compound: Cc1ccc(S(=O)(=O)Nc2ccccc2F)cc1C(=O)N1CCN(c2ccccc2O)CC1
Unit Label: %
Reading: 73

Compound: CC(Oc1ccc(F)cc1)C(=O)Nc1cc(S(=O)(=O)N2CCOCC2)ccc1N1CCCC1 (centres undefined)
Unit Label: %
Reading: 75.1

Given item `CC(C)C[C@H](NC(=O)N1CC(=O)Nc2ccccc21)C(=O)N[C@@H](Cc1c[nH]c2ccccc12)C(=O)O` , the value recorded as its activation (% of partial agonist control) is 69.4

Given item Cc1cc(N2C(=O)C(O)=C(C(=O)c3ccco3)C2c2cccc(Oc3ccccc3)c2)no1 (centres undefined) , the value recorded as its activation (% of partial agonist control) is 71.3

Given item `Cc1cc(C(=O)CN2C(=O)C(=O)N(Cc3ccccc3)C2=O)c(C)n1Cc1ccc(F)cc1` , the value recorded as its activation (% of partial agonist control) is 84.1

Given item O=C1C(=O)N(CCCn2ccnc2)C(c2ccc(Cl)cc2)/C1=C(\O)c1ccc2c(c1)OCCO2 (centres undefined) , the value recorded as its activation (% of partial agonist control) is 91.9
